Collected hERG current change (%, negative = inhibition) at 10uM values appear next to each entry.
Molecular target: human ether-à-go-go-related gene (hERG) potassium channel (human);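 note: peak tail current of the secondary pulse compared with the same well before compound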
Test: primary screen, population patch clamp on CHO cells stably expressing hERG; higher = less effect of the substance
Out of some 310,000 compounds screened, about 14,000 (4.5%) showed an effect of 50% or more. The effect is printed as a negative number. The full list was thinned out, with strong results kept by preference.
Numbers only; they are read as %.

// below: answered compounds
>>> endpointresult("COCc1ccc(C(=O)N2CCCC(N3CCN(c4ccc(F)cc4)CC3)C2)o1 (stereo not drawn)")
-47.3
>>> endpointresult("Cc1cc(C(=O)N2CCCC(N3CCN(c4ccc(F)cc4)CC3)C2)no1 (stereo not drawn)")
-37.7
>>> endpointresult("COC(=O)c1ccc(C(=O)N2CCCC(N3CCN(c4ccccc4)CC3)C2)nc1 (stereo not drawn)")
-22.4
>>> endpointresult("COC(=O)c1ccc(C(=O)N2CCCC(N3CCN(c4ccc(F)cc4)CC3)C2)nc1 (stereo not drawn)")
-56.1
>>> endpointresult("O=C(c1cc(C2CC2)on1)N1CCN(c2ccc(F)cc2)CC1")
-43.4

# input for lookup
q: What reported hERG current change (%, negative = inhibition) at 10uM corresponds to O=C(c1cc(C2CC2)on1)N1CCCC(N2CCN(c3cccc(C(F)(F)F)c3)CC2)C1 (stereo not drawn) on human ether-à-go-go-related gene (hERG) potassium channel (human)?
a: -48.7

* * *

Biological target: human ether-à-go-go-related gene (hERG) potassium channel (human, UniProt Q12809);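 note: peak tail current of the secondary pulse compared with the same well before compound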
Sequence (Q12809 whole entry, looked up): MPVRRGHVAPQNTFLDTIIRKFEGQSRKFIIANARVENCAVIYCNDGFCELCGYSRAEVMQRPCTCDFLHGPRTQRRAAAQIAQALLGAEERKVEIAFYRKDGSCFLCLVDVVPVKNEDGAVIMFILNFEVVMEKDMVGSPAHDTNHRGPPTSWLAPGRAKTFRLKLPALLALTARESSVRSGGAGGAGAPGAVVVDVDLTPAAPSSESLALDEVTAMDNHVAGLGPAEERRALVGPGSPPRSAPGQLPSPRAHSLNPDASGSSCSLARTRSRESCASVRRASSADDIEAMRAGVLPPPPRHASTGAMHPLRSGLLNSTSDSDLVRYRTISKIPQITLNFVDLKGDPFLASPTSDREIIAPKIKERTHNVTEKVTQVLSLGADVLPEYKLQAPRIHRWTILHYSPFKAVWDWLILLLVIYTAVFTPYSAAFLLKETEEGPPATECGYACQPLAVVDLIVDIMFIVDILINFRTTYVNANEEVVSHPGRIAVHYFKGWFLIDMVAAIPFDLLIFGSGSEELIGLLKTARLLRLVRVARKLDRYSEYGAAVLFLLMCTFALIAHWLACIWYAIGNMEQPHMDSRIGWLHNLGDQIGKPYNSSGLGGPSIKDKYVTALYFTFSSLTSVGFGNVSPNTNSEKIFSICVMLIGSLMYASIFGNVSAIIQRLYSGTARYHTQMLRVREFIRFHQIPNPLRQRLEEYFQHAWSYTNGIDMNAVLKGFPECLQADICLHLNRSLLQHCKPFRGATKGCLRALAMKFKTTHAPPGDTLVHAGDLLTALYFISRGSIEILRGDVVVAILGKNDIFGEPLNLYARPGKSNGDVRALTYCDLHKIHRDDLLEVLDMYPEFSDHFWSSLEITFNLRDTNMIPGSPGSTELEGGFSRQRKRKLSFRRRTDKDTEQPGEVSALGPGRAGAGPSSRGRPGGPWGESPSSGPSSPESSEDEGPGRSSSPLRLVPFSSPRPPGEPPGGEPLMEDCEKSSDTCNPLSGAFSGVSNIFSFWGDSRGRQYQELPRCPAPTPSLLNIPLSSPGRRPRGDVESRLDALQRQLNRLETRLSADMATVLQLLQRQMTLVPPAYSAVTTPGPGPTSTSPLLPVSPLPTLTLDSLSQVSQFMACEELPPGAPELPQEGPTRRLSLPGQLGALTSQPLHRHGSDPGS
Test: primary screen, population patch clamp on CHO cells stably expressing hERG; higher = less effect of the substance
The campaign covered roughly 310,000 compounds. About 14,000 (4.5%) showed an effect of 50% or more. Effects have a minus sign here. Shown is part of a subset that was picked to be rich in strong results.
experimentalReadout: hERG current change (%, negative = inhibition) at 10uM (%)
Numbers only; they are read as %.

// below: answered compounds
>>> endpointresult("COc1ccc(CCNC(=O)c2ccc3ccccc3n2)cc1")
-5.65
>>> endpointresult("O=C(Nc1ccccc1)N1CCN(CCc2ccccc2)CC1")
-14.5
>>> endpointresult("Cc1ccc(C)c(NC(=O)CSc2nnc(CCNC(=O)OC(C)(C)C)o2)c1")
-12.3
>>> endpointresult("O=C(Nc1ccc(F)cc1)N1CCN(C/C=C/c2ccccc2)CC1")
-68.6

q: Record request: hERG current change (%, negative = inhibition) at 10uM value, item O=C(Cn1c(=O)n(Cc2ccc(F)cc2)c(=O)c2ccccc21)NCC1CCCO1 (stereo not shown)
a: -2.66

q: Record request: hERG current change (%, negative = inhibition) at 10uM value, item CC(C)c1ccc(N2CC(C(=O)Nc3nccs3)CC2=O)cc1 (stereo not shown)
a: 1.98

q: Record request: hERG current change (%, negative = inhibition) at 10uM value, item N=c1c(C(=O)NCC2CCCO2)cc2c(=O)n3ccccc3nc2n1Cc1ccccc1 (stereo not shown)
a: -75.3

q: Record request: hERG current change (%, negative = inhibition) at 10uM value, item CCCN1C(=O)c2ccccc2NC1c1ccc(Cl)c(Cl)c1 (stereo not shown)
a: 6.85

q: Record request: hERG current change (%, negative = inhibition) at 10uM value, item O=C(Nc1cccc(Cl)c1)N1CCOCC1
a: 20

q: Record request: hERG current change (%, negative = inhibition) at 10uM value, item O=C(Nc1cccc(Cl)c1)N1CCN(C/C=C/c2ccccc2)CC1
a: -68.5

q: Record request: hERG current change (%, negative = inhibition) at 10uM value, item COCCN1C(=O)C(=O)/C(=C(/O)c2ccc(S(=O)(=O)N3CCCCC3)cc2)C1c1ccc(OC)c(OC)c1 (stereo not shown)
a: 8.21

q: Record request: hERG current change (%, negative = inhibition) at 10uM value, item S=C(Nc1ccccc1)N1CCN(C/C=C/c2ccccc2)CC1
a: -8.71

q: Record request: hERG current change (%, negative = inhibition) at 10uM value, item Cc1ccc2nc3c(cc(C(=O)NCCc4ccccc4)c(=N)n3CCCN3CCOCC3)c(=O)n2c1
a: -80.6

q: Record request: hERG current change (%, negative = inhibition) at 10uM value, item O=C1c2ccccc2NC(c2ccccc2)N1Cc1ccccc1 (stereo not shown)
a: -35.2
